test: folding stability dG unfold (combined trypsin and chymotrypsin); higher = more stable

[
  {
    "Ordered residues": "SAGGSAGGSMADITITVTDPATGATRTFPHSVSLEEILAEHPGPVTVTIETPTSTTTLQVPRESAGGSAGGS [r12_1056_JUSTAS]",
    "Value modifier": "=",
    "folding stability dG unfold (kcal/mol)": 0.542
  },
  {
    "Ordered residues": "SAGGGMSTTTETTIRIYVKDPQGNPVFVAELTVTVTTSPSGEVTIHLPPEFLKALPPNYTIAKIEVTSAGGS [r16_295_JUSTAS]",
    "Value modifier": "=",
    "folding stability dG unfold (kcal/mol)": 4.06
  },
  {
    "Ordered residues": "SAGGSAGGSAGMTYRVRIENADGEVVTIEISADELREKGLTLEELLPPNARIVEVEEVEPSAGGSAGGSAGG [r11_829_TrROS_Hall]",
    "Value modifier": "=",
    "folding stability dG unfold (kcal/mol)": 3.63
  },
  {
    "Ordered residues": "SAGGSAGGSAGGKTVWIPWDDLEELKDLPPGKKRTIHLWNPKNGRWYRITVTDNNIEIERSAGGSAGGSAGG [r7_765_TrROS]",
    "Value modifier": "=",
    "folding stability dG unfold (kcal/mol)": 2.86
  },
  {
    "Ordered residues": "SAGGSAGGMYKVTITVTDPATGKTVATETLTLESEEEAKEYVEAVKKELPSSLTVSATITKVPESAGGSAGG [r6_690_JUSTAS]",
    "Value modifier": "=",
    "folding stability dG unfold (kcal/mol)": 4.58
  },
  {
    "Ordered residues": "SAGGSAGGSVVPPEEEETVEKKETLTDPVTGKEYLSRRRVTYRPSKPEKVAEEEEIIPPDEPLSAGGSAGGS [r12_868_JUSTAS]",
    "Value modifier": "<",
    "folding stability dG unfold (kcal/mol)": -1
  },
  {
    "Ordered residues": "SAGGEIEIVVETPEDLEKAKELAEELAKALEEAGLEIEEVKVELVEETVVNEDGEEKKRYVLKITFPSAGGS [r16_591_TrROS_Hall]",
    "Value modifier": "=",
    "folding stability dG unfold (kcal/mol)": 2.97
  }
]

====

A collection of sequences and their measured folding stability dG unfold
assay: folding stability dG unfold from chymotrypsin proteolysis; higher = more stable

[
  {
    "Ordered residues": "SAGGSAGGSAGGSGDPNNPVTLLVLDVPSPEPAGTVYYFPDGYVAVNFPSINRTLVFYGSAGGSAGGSAGGS [r4_78_TrMRF]",
    "folding stability dG unfold / kcal/mol": 1.42
  },
  {
    "Ordered residues": "SAGGSAGGSAGSKTPSVLVIEVDANTSIEKILELYKKNYPVGEIRVFTRPDGRKIAVITGSAGGSAGGSAGG [r11_97_TrMRF]",
    "folding stability dG unfold / kcal/mol": 2.33
  },
  {
    "Ordered residues": "SAGGSAGGSAGGPDFKIEPVEKKGNYELYKAYIPETGEEFFLVYYPNPKEVKIYPSDYLSAGGSAGGSAGGS [r10_172_TrMRF]",
    "folding stability dG unfold / kcal/mol": 1.52
  },
  {
    "Ordered residues": "SADRIKINVMTHQSPDGRPYYMVSIRIPGNGKEIMGPIDSPEDAEEQAKEIADKLEKEGIPIEVEIYPMSAG [r14_263_TrROS]",
    "folding stability dG unfold / kcal/mol": 1.82
  },
  {
    "Ordered residues": "SAGGSAPPVKVDVEELDDDLVKVTVTFPGGPFTLKLYKDGKLLKEETVPEDETATFVLPKDALIVGSAGGSA [r15_581_TrMRF]",
    "folding stability dG unfold / kcal/mol": 1.59
  },
  {
    "Ordered residues": "SAGGGPPSSMVKKTYTVTGTDPDALAAAVRAAIAAAHPDVEITEVTVSRDPSSDRYTVTVDVLSSVASAGGS [r8_120_JUSTAS]",
    "folding stability dG unfold / kcal/mol": 2.64
  },
  {
    "Ordered residues": "SKKKKEKKKKEKEKKEKKKVIVLSEEELLEKVRELAKKGKKVKIVVKTPDKELAERLAKEAEELGVEVEVSA [r9_468_TrROS_Hall]",
    "folding stability dG unfold / kcal/mol": 1.32
  },
  {
    "Ordered residues": "SAGGSASSYGIEIEFSEDPNSKTKKITITVTRPDGTVETVTITNPDITDEEAKKIGEELANEVANSSAGGSA [r15_526_JUSTAS]",
    "folding stability dG unfold / kcal/mol": 1.93
  },
  {
    "Ordered residues": "SAGGMIVANVNPETDKVTLLITRPVVLYDEETGELREEEVTLVITASLEELEKLEEESGLPLLIIPSSAGGS [r8_337_TrMRF]",
    "folding stability dG unfold / kcal/mol": 2.16
  },
  {
    "Ordered residues": "SAGGFEFEFTNPDGKKIKVEIERHPEEGYIMLKIQYGGKPVETFPPGDEFEIPPDGIDAVIMFRLPPESAGG [r13_958_TrROS]",
    "folding stability dG unfold / kcal/mol": 3.22
  },
  {
    "Ordered residues": "SAGGSAGGSAGGKTITLPPGMSEEELLEALKKAKPGDTITIEVDGKTYTLKVENGKITLTSAGGSAGGSAGG [r7_560_TrROS_Hall]",
    "folding stability dG unfold / kcal/mol": 3.92
  },
  {
    "Ordered residues": "SAGGSAGGSAGGIYPGPGNLLYFTGEDDYVKVIKITPPDNTIKIDIEIVPKGEATKIPYSAGGSAGGSAGGS [r10_257_TrMRF]",
    "folding stability dG unfold / kcal/mol": -0.331
  }
]
